Reference source for all entries: patent US11230547B2

The following compounds are shown together with reported IC50 values.
molecular target: PI3Kdelta (Homo sapiens (Human)); experiment: HTRF PI3K biochemical assay, delta isoform; details: 0.3 nM enzyme, 100 uM ATP, 5 uM PIP2, form screened per table
Sequence (O00329 whole entry, one chain of several, canonical isoform): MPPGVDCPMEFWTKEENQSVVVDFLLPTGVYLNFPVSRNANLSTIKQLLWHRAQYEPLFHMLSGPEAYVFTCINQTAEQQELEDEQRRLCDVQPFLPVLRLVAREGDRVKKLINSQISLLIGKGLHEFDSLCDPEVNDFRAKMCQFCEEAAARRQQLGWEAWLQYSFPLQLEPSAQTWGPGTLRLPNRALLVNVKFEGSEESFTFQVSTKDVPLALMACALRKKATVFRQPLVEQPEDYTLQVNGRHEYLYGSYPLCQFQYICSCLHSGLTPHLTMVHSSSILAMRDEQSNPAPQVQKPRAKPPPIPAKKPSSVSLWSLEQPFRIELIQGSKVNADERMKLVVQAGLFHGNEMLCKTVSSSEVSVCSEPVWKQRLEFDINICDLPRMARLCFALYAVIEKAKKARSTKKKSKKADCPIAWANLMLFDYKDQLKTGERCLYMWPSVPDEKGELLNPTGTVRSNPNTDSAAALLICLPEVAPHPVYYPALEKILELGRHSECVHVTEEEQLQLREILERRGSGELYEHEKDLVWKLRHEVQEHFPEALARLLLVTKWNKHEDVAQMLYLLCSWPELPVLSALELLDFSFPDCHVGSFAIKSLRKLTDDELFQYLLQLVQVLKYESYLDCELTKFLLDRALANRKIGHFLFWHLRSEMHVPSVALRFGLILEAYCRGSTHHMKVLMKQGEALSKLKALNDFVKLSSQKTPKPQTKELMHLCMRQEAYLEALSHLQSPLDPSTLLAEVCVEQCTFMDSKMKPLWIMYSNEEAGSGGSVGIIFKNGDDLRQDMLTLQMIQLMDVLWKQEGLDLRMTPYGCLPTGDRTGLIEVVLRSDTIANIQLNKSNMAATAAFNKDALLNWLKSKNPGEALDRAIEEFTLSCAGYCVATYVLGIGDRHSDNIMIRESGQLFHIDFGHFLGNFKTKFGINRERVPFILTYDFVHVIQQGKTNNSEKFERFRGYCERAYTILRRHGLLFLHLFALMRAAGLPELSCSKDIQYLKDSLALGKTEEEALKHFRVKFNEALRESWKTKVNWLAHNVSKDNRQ
Just the number in nM, nothing appended.

The examples below pair each entry with its known result.
| Compound | Study target | Result unit | Measurement |
| --- | --- | --- | --- |
| COCC1(C(=O)N2C[C@@H]3CC2CN3c2nc(-c3cnn(C)c3)ncc2C#N)CC1 (stereo in doubt) | PI3Kdelta (Homo sapiens (Human)) | nM | 270 |
| C[C@@H]1CN(c2nc(-c3cnn(C)c3)ncc2C#N)CCN1c1cccc(F)c1 | PI3Kdelta (Homo sapiens (Human)) | nM | 170 |
| Cn1cc(-c2ncc(C#N)c(N3CC4C[C@H]3CN4C(=O)c3cocn3)n2)cn1 (stereo in doubt) | PI3Kdelta (Homo sapiens (Human)) | nM | 1100 |

Moving on to the next compound.
Reported IC50 ( C[C@@H]1CN(c2nc(-c3cnn(C)c3)ncc2C#N)CCN1C(=O)C1CC1 ) = 110

###

biological target: PI3Kalpha (Homo sapiens (Human), UniProt P42336); experiment: HTRF PI3K biochemical assay, alpha isoform (selectivity versus delta); settings: relative ratio PI3K-alpha IC50 value / PI3K-delta IC50 value
Sequence (P42336 whole entry, canonical isoform): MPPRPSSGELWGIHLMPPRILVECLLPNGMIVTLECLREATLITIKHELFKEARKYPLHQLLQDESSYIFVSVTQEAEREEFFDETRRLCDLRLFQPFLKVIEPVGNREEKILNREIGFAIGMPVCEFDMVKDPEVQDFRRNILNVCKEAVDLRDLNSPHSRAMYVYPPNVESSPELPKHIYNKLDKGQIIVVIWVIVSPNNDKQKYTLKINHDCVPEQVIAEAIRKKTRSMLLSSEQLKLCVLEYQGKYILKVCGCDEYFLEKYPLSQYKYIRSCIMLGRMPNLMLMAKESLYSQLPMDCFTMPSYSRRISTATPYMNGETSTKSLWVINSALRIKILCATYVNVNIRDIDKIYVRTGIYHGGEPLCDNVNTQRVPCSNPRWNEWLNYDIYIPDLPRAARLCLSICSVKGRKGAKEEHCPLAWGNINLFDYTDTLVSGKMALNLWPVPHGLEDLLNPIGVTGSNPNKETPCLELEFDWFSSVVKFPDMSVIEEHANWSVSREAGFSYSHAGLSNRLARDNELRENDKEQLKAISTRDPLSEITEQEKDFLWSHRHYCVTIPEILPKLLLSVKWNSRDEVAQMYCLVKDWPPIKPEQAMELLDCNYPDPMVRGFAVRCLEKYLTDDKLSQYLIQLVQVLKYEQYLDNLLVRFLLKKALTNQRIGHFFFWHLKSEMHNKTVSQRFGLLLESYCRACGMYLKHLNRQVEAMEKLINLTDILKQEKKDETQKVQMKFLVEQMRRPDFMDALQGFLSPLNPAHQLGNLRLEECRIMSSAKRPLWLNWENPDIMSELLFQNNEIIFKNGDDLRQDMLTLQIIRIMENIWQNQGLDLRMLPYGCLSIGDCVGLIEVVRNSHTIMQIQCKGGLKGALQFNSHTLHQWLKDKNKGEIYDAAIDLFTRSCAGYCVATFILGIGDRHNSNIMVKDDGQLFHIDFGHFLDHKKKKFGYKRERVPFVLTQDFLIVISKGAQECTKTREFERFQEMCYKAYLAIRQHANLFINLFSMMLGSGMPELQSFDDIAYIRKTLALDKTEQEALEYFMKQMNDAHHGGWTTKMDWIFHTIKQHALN
Sequence (P27986 whole entry partner, canonical isoform): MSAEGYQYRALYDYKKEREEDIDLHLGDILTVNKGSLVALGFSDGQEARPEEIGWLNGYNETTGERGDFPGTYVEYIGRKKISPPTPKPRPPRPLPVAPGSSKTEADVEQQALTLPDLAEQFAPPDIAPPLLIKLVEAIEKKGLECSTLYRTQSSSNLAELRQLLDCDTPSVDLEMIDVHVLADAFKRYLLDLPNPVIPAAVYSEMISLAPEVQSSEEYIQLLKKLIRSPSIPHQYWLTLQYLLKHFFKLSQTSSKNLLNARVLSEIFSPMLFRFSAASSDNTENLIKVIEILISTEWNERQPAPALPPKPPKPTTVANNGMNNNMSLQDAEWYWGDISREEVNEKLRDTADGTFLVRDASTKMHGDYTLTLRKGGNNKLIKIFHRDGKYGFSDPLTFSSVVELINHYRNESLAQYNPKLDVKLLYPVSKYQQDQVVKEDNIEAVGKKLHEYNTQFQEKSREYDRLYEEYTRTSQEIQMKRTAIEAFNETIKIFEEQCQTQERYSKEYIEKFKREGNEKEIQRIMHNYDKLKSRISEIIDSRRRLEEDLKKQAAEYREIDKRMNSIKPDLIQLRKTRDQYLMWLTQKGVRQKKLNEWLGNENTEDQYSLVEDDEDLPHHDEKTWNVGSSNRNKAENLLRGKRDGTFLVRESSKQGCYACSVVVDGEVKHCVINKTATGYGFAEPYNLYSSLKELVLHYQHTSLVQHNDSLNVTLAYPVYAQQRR
Observation type: Selectivity versus PI3Kalpha

| Compound | Study target | Selectivity versus PI3Kalpha |
| --- | --- | --- |
| CC(=O)Nc1nc(-c2cnn(C)c2)nc(N2CCN(C(=O)C3CC3)[C@H](C)C2)c1C#N [Compound 6-3] | PI3Kalpha (Homo sapiens (Human), UniProt P42336) | >10 |
| Cn1cc(-c2ncc(C#N)c(N3CCN(c4cccc(F)c4)C(C)(C)C3)n2)cn1 [Compound 3-1] | PI3Kalpha (Homo sapiens (Human), UniProt P42336) | 8 |
| C[C@@H]1CN(c2ncc(C#N)c(-c3cnn(C)c3)n2)CCN1C(=O)C1CC1 [Compound 5-4] | PI3Kalpha (Homo sapiens (Human), UniProt P42336) | >10 |

As a next step, examine the compound that follows.
Response field Selectivity versus PI3Kalpha (PI3Kalpha (Homo sapiens (Human), UniProt P42336)) for item C[C@@H]1C[C@@H]1C(=O)N1CCN(c2nc(-c3cnn(C)c3)ncc2C#N)C[C@H]1C [Compound 4-9] : >10

###

target: UniProt:O00329; test: HTRF PI3K biochemical assay, delta isoform; details: 0.3 nM enzyme, 100 uM ATP, 5 uM PIP2, form screened per table
Please assign f whenever IC50 is at or above 20 nM, and t whenever it is below.

| Compound | Assigned class |
| --- | --- |
| C[C@@H]1CN(c2nc(-c3cnn(C)c3)ncc2C#N)CCN1C(=O)C1CC12CCCC2 (some centres unmarked) [Compound 4-7] | f |
| C[C@@H]1CN(c2nc(-c3cnn(C)c3)nc(OCC(F)(F)F)c2C#N)CCN1C(=O)C1CC1 [Compound 6-22] | t |
| C[C@@H]1CN(c2nc(-c3cnn(C)c3)nc(Nc3ccccc3)c2C#N)CCN1C(=O)C1CC1 [Compound 6-8] | t |
| Cc1nn(C)cc1-c1ncc(C#N)c(N2CCN(C(=O)C3CC3)[C@H](C)C2)n1 [Compound 6-28] | f |
| CCCc1nc(N2CCN(C(=O)C3CC3)[C@H](C)C2)nc(-c2cnn(C)c2)c1C#N [Compound 6-25] | t |
| CCCc1nc(-c2cnn(C)c2)nc(N2CCN(C(=O)C3CC3)[C@H](C)C2)c1C#N [Compound 6-24] | f |

Asked: Lab log: compare recorded IC50 with 20 nM; is it strictly lower for C[C@@H]1CN(c2nc(-c3cnn(C)c3)ncc2Cl)CCN1C(=O)C1CC1 [Compound 5-13] ?
Given back: f

Asked: Strictly below 20 nM: is that where IC50 of Cn1cc(-c2ncc(C#N)c(N3CC4C[C@H]3CN4c3cccc(C(C)(C)O)c3)n2)cn1 (stereo in doubt) [Compound 1-5] sits?
Given back: f
